Recorded MIC90 for the following molecules
# Tested on: Escherichia coli
# Measurement notes: Antimicrobial activity against Escherichia coli ATCC 25922 under iron-sufficient condition by CLSI protocol based broth microdilution method
# Format: functional
Return type: number; implicit unit µM.

Here is how some molecules turned out for MIC90.
{"Smiles input": "CC1(C)S[C@@H]2[C@H](NC(=O)[C@H](NC(=O)CCC(=O)NC(CCCNC(=O)c3cccc(O)c3O)(CCCNC(=O)c3cccc(O)c3O)CCCNC(=O)c3cccc(O)c3O)c3ccc(O)cc3)C(=O)N2[C@H]1C(=O)O", "Parameter": "MIC90", "Test value": 100}
{"Smiles input": "CC1(C)S[C@@H]2[C@H](NC(=O)[C@H](N)c3ccccc3)C(=O)N2[C@H]1C(=O)O", "Parameter": "MIC90", "Test value": 16.7}
{"Smiles input": "CC1(C)S[C@@H]2[C@H](NC(=O)[C@H](NC(=O)CCC(=O)NC(CCCNC(=O)c3cccc(O)c3O)(CCCNC(=O)c3cccc(O)c3O)CCCNC(=O)c3cccc(O)c3O)c3ccccc3)C(=O)N2[C@H]1C(=O)O", "Parameter": "MIC90", "Test value": 150}

Now let's try a different one.
Jot down MIC90 (Escherichia coli) of `CC1(C)S[C@@H]2[C@H](NC(=O)[C@H](N)c3ccc(O)cc3)C(=O)N2[C@H]1C(=O)O` .
4.17

* * *

# System: Pseudomonas aeruginosa
# Measurement notes: Antimicrobial activity against Pseudomonas aeruginosa PA4 under iron-sufficient condition by CLSI protocol based broth microdilution method
# Assay type: functional
Parameter: MIC90 (µM)
Write down the numeric answer in µM and omit the unit.

{"Smiles input": "CC1(C)S[C@@H]2[C@H](NC(=O)[C@H](NC(=O)CCC(=O)NC(CCCNC(=O)c3cccc(O)c3O)(CCCNC(=O)c3cccc(O)c3O)CCCNC(=O)c3cccc(O)c3O)c3ccc(O)cc3)C(=O)N2[C@H]1C(=O)O", "Unit abbrev": "µM", "MIC90": 25}

Provide the reported MIC90 (system: Pseudomonas aeruginosa) for `CC1(C)S[C@@H]2[C@H](NC(=O)[C@H](NC(=O)CCC(=O)NC(CCCNC(=O)c3cccc(O)c3O)(CCCNC(=O)c3cccc(O)c3O)CCCNC(=O)c3cccc(O)c3O)c3ccccc3)C(=O)N2[C@H]1C(=O)O`
25

* * *

# System: Klebsiella pneumoniae
# Measurement notes: Antimicrobial activity against Klebsiella pneumoniae X68 under iron-sufficient condition by CLSI protocol based broth microdilution method
# Assay type: functional
Parameter: MIC90

Examples from the recorded data:
{"Smiles input": "CC1(C)S[C@@H]2[C@H](NC(=O)[C@H](NC(=O)CCC(=O)NC(CCCNC(=O)c3cccc(O)c3O)(CCCNC(=O)c3cccc(O)c3O)CCCNC(=O)c3cccc(O)c3O)c3ccccc3)C(=O)N2[C@H]1C(=O)O", "Target desc": "Klebsiella pneumoniae", "MIC90": "> 200 µM"}
{"Smiles input": "CC1(C)S[C@@H]2[C@H](NC(=O)[C@H](N)c3ccc(O)cc3)C(=O)N2[C@H]1C(=O)O", "Target desc": "Klebsiella pneumoniae", "MIC90": "100 µM"}
{"Smiles input": "CC1(C)S[C@@H]2[C@H](NC(=O)[C@H](N)c3ccccc3)C(=O)N2[C@H]1C(=O)O", "Target desc": "Klebsiella pneumoniae", "MIC90": "> 200 µM"}

# context switch: different molecule, same MIC90
Report measured MIC90; entry is `CC1(C)S[C@@H]2[C@H](NC(=O)[C@H](NC(=O)CCC(=O)NC(CCCNC(=O)c3cccc(O)c3O)(CCCNC(=O)c3cccc(O)c3O)CCCNC(=O)c3cccc(O)c3O)c3ccc(O)cc3)C(=O)N2[C@H]1C(=O)O`
> 200 µM
